Entries and their glycan array binding signal (z-score) values follow.
Assayed system: Gal(a1-4)Gal(b1-4)GlcNAc(b1-2)Man(a1-3)[Gal(a1-4)Gal(b1-4)GlcNAc(b1-2)Man(a1-6)]Man(b1-4)GlcNAc(b1-4)GlcNAc
Procedure details: glycan array binding signal (z-score within array); higher = stronger binding
Measurement setup: glycan notation: IUPAC condensed, linker removed
Only a selection was taken, and the strongest signals are over-represented in it overall.

{"columns": ["Binder", "glycan array binding signal (z-score)"],
 "data": [
  ["RBMC1 (Vibrio cholerae) (protein) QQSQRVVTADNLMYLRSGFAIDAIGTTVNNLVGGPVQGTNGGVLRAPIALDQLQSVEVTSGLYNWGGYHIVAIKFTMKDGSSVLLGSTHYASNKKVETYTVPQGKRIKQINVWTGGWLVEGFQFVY", 3.8],
  ["rPitB (Streptococcus pneumoniae), A0A0I7U739 (protein) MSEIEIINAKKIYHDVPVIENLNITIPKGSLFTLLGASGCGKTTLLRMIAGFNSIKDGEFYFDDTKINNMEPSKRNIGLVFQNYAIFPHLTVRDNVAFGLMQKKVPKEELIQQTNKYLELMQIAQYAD", 1.43],
  ["Epa6 (Candida glabrata), Q6DTM7_CANGB (protein) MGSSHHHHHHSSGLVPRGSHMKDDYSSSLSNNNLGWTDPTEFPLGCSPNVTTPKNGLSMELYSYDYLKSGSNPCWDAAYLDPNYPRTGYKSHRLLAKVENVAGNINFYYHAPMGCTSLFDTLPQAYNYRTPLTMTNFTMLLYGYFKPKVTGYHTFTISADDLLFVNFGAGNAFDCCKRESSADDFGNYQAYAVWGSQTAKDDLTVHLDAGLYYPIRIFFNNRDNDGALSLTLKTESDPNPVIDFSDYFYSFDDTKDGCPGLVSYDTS", 4.02]
]}
